For each entry below, report its viability, T/C value.
# Test system: 935938-334-R-J1-PDC spheroids with HUVEC/MSC, viability;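 note: compound exposure lasted seven days before viability was read; percent of vehicle DMSO treated spheroid viability so 100% = untreated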
# METHOD_SUMMARY: Anticancer human tumor 935938-334-R-J1-PDC patient-derived small intestine adenocarcinoma cell line growth inhibition [PI3K]
# CONDITION_INFO: second compound 1 µM; first compound 0.0949 µM; active compounds read low
# From the text: Combinatorial screen of targeted agents with the PI3K inhibitors inavolisib, alpelisib, duvelisib, and copanlisib in multi-cell type tumor spheroids A high-throughput screen of multi-cell type tumor spheroids was designed to identify active combinations of targeted small molecules and PI3K pathway inhibitors. […] Compounds. […] If the clinical Cmax for an agent had not been determined, the highest concentration tested was 10 microM. […]
One number for each entry, in %.

Below are 4 molecules. Give each one its viability, T/C.
1. Cn1cnc2c(F)c(Nc3ccc(Br)cc3Cl)c(C(=O)NOCCO)cc21 + CC(Nc1ccc2c(c1)OCCn1cc(N3C(=O)OCC3C(F)F)nc1-2)C(N)=O
2. Cn1cnc2c(F)c(Nc3ccc(Br)cc3Cl)c(C(=O)NOCCO)cc21 + CC(Nc1ncnc2nc[nH]c12)c1cc2cccc(Cl)c2c(=O)n1-c1ccccc1
3. Cn1cnc2c(F)c(Nc3ccc(Br)cc3Cl)c(C(=O)NOCCO)cc21 + COc1c(OCCCN2CCOCC2)ccc2c3n(c(=NC(=O)c4cnc(N)nc4)nc12)CCN3
4. Cn1cnc2c(F)c(Nc3ccc(Br)cc3Cl)c(C(=O)NOCCO)cc21 + Cc1nc(NC(=O)N2CCCC2C(N)=O)sc1-c1ccnc(C(C)(C)C(F)(F)F)c1

RESULT:
1: 20.7; 2: 47.7; 3: 21.4; 4: 26.4
